Experiment: Cytotoxicity against human HT1080 cells assessed as growth inhibition after 48 hrs by MTT assay
Format: functional, cell-based
Settings: HT-1080, 48 h
Attribute: IC50
ATTRIBUTE_MEASURED: IC50

1) CC[C@H]1OC(=O)[C@H](C)[C@@H](O[C@H]2C[C@@](C)(OC)[C@@H](O)[C@H](C)O2)[C@H](C)[C@@H](O[C@@H]2O[C@H](C)C[C@H](N(C)CCN(C)[C@H]3C[C@@H](C)O[C@@H](O[C@@H]4[C@@H](C)[C@H](O[C@H]5C[C@@](C)(OC)[C@@H](O)[C@H](C)O5)[C@@H](C)C(=O)O[C@H](CC)[C@@](C)(O)[C@H](O)[C@@H](C)/C(=N\O)[C@H](C)C[C@@]4(C)OC)[C@@H]3O)[C@H]2O)[C@](C)(OC)C[C@@H](C)/C(=N/O)[C@H](C)[C@@H](O)[C@]1(C)O	5.3 µM
2) CC[C@H]1OC(=O)[C@H](C)[C@@H](O)[C@H](C)[C@@H](O[C@@H]2O[C@H](C)C[C@H](N(C)CCN(C)[C@H]3C[C@@H](C)O[C@@H](O[C@@H]4[C@@H](C)[C@H](O[C@H]5C[C@@](C)(OC)[C@@H](O)[C@H](C)O5)[C@@H](C)C(=O)O[C@H](CC)[C@@](C)(O)[C@H](O)[C@@H](C)C(=O)[C@H](C)C[C@@]4(C)OC)[C@@H]3O)[C@H]2O)[C@](C)(OC)C[C@@H](C)C(=O)[C@H](C)[C@@H](O)[C@]1(C)O	> 100 µM
3) CC[C@H]1OC(=O)[C@H](C)[C@@H](O)[C@H](C)[C@@H](O[C@@H]2O[C@H](C)C[C@H](N(C)CCN(C)[C@H]3C[C@@H](C)O[C@@H](O[C@@H]4[C@@H](C)[C@H](O[C@H]5C[C@@](C)(OC)[C@@H](O)[C@H](C)O5)[C@@H](C)C(=O)O[C@H](CC)[C@@](C)(O)[C@H](O)[C@@H](C)/C(=N\O)[C@H](C)C[C@@]4(C)OC)[C@@H]3O)[C@H]2O)[C@](C)(OC)C[C@@H](C)/C(=N/O)[C@H](C)[C@@H](O)[C@]1(C)O	42.8 µM
4) CC[C@H]1OC(=O)[C@H](C)[C@@H](O[C@H]2C[C@@](C)(OC)[C@@H](O)[C@H](C)O2)[C@H](C)[C@@H](O[C@@H]2O[C@H](C)C[C@H](N(C)CCN(C)[C@H]3C[C@@H](C)O[C@@H](O[C@@H]4[C@@H](C)[C@H](O[C@H]5C[C@@](C)(OC)[C@@H](O)[C@H](C)O5)[C@@H](C)C(=O)O[C@H](CC)[C@@](C)(O)[C@H](O)[C@@H](C)/C(=N\OCc5cc(OC)c(OC)c(OC)c5)[C@H](C)C[C@@]4(C)O)[C@@H]3O)[C@H]2O)[C@](C)(OC)C[C@@H](C)C(=O)[C@H](C)[C@@H](O)[C@]1(C)O	41.5 µM

---

Assay: Cytotoxicity against human SGC7901 cells assessed as growth inhibition after 48 hrs by MTT assay
Format: functional, cell-based
Conditions: SGC-7901, 48 h
pIC50: −log10 of the molar value.
Attribute: pIC50
ATTRIBUTE_MEASURED: pIC50

1) CC[C@H]1OC(=O)[C@H](C)[C@@H](O)[C@H](C)[C@@H](O[C@@H]2O[C@H](C)C[C@H](N(C)CCN(C)[C@H]3C[C@@H](C)O[C@@H](O[C@@H]4[C@@H](C)[C@H](O[C@H]5C[C@@](C)(OC)[C@@H](O)[C@H](C)O5)[C@@H](C)C(=O)O[C@H](CC)[C@@](C)(O)[C@H](O)[C@@H](C)/C(=N\O)[C@H](C)C[C@@]4(C)OC)[C@@H]3O)[C@H]2O)[C@](C)(OC)C[C@@H](C)/C(=N/O)[C@H](C)[C@@H](O)[C@]1(C)O	4.90
2) CC[C@H]1OC(=O)[C@H](C)[C@@H](O[C@H]2C[C@@](C)(OC)[C@@H](O)[C@H](C)O2)[C@H](C)[C@@H](O[C@@H]2O[C@H](C)C[C@H](N(C)CCN(C)[C@H]3C[C@@H](C)O[C@@H](O[C@@H]4[C@@H](C)[C@H](O[C@H]5C[C@@](C)(OC)[C@@H](O)[C@H](C)O5)[C@@H](C)C(=O)O[C@H](CC)[C@@](C)(O)[C@H](O)[C@@H](C)/C(=N\OCc5ccccc5)[C@H](C)C[C@@]4(C)OC)[C@@H]3O)[C@H]2O)[C@](C)(OC)C[C@@H](C)/C(=N/OCc2ccccc2)[C@H](C)[C@@H](O)[C@]1(C)O	4.58
3) CC[C@H]1OC(=O)[C@H](C)[C@@H](O[C@H]2C[C@@](C)(OC)[C@@H](O)[C@H](C)O2)[C@H](C)[C@@H](O[C@@H]2O[C@H](C)C[C@H](N(C)CCN(C)[C@H]3C[C@@H](C)O[C@@H](O[C@@H]4[C@@H](C)[C@H](O[C@H]5C[C@@](C)(OC)[C@@H](O)[C@H](C)O5)[C@@H](C)C(=O)O[C@H](CC)[C@@](C)(O)[C@H](O)[C@@H](C)/C(=N\OCOCCOC)[C@H](C)C[C@@]4(C)O)[C@@H]3O)[C@H]2O)[C@](C)(O)C[C@@H](C)[C@H](O)[C@H](C)[C@@H](O)[C@]1(C)O	4.34
4) CC[C@H]1OC(=O)[C@H](C)[C@@H](O[C@H]2C[C@@](C)(OC)[C@@H](O)[C@H](C)O2)[C@H](C)[C@@H](O[C@@H]2O[C@H](C)C[C@H](N(C)CCN(C)[C@H]3C[C@@H](C)O[C@@H](O[C@@H]4[C@@H](C)[C@H](O[C@H]5C[C@@](C)(OC)[C@@H](O)[C@H](C)O5)[C@@H](C)C(=O)O[C@H](CC)[C@@](C)(O)[C@H](O)[C@@H](C)C(=O)[C@H](C)C[C@@]4(C)OC)[C@@H]3O)[C@H]2O)[C@](C)(OC)C[C@@H](C)C(=O)[C@H](C)[C@@H](O)[C@]1(C)O	4.70
5) CC[C@H]1OC(=O)[C@H](C)[C@@H](O[C@H]2C[C@@](C)(OC)[C@@H](O)[C@H](C)O2)[C@H](C)[C@@H](O[C@@H]2O[C@H](C)C[C@H](N(C)CCN(C)[C@H]3C[C@@H](C)O[C@@H](O[C@@H]4[C@@H](C)[C@H](O[C@H]5C[C@@](C)(OC)[C@@H](O)[C@H](C)O5)[C@@H](C)C(=O)O[C@H](CC)[C@@](C)(O)[C@H](O)[C@@H](C)/C(=N\OCOCCOC)[C@H](C)C[C@@]4(C)O)[C@@H]3O)[C@H]2O)[C@](C)(OC)C[C@@H](C)/C(=N/O)[C@H](C)[C@@H](O)[C@]1(C)O	4.66
6) CC[C@H]1OC(=O)[C@H](C)[C@@H](O[C@H]2C[C@@](C)(OC)[C@@H](O)[C@H](C)O2)[C@H](C)[C@@H](O[C@@H]2O[C@H](C)C[C@H](N(C)CCN(C)[C@H]3C[C@@H](C)O[C@@H](O[C@@H]4[C@@H](C)[C@H](O[C@H]5C[C@@](C)(OC)[C@@H](O)[C@H](C)O5)[C@@H](C)C(=O)O[C@H](CC)[C@@](C)(O)[C@H](O)[C@@H](C)[C@@H](O)[C@H](C)C[C@@]4(C)O)[C@@H]3O)[C@H]2O)[C@](C)(O)C[C@@H](C)[C@H](O)[C@H](C)[C@@H](O)[C@]1(C)O	4.21
7) CC[C@H]1OC(=O)[C@H](C)[C@@H](O[C@H]2C[C@@](C)(OC)[C@@H](O)[C@H](C)O2)[C@H](C)[C@@H](O[C@@H]2O[C@H](C)C[C@H](N(C)C(=O)CN(C)[C@H]3C[C@@H](C)O[C@@H](O[C@@H]4[C@@H](C)[C@H](O[C@H]5C[C@@](C)(OC)[C@@H](O)[C@H](C)O5)[C@@H](C)C(=O)O[C@H](CC)[C@@](C)(O)[C@H](O)[C@@H](C)C(=O)[C@H](C)C[C@@]4(C)O)[C@@H]3O)[C@H]2O)[C@](C)(OC)C[C@@H](C)C(=O)[C@H](C)[C@@H](O)[C@]1(C)O	4.18

---

Attribute: pIC50
Experiment: Cytotoxicity against human SGC7901 cells assessed as growth inhibition after 48 hrs by MTT assay
Format: functional, cell-based
Conditions: SGC-7901, 48 h
pIC50: −log10 of the molar value.
ATTRIBUTE_MEASURED: pIC50

1. CC[C@H]1OC(=O)[C@H](C)[C@@H](O[C@H]2C[C@@](C)(OC)[C@@H](O)[C@H](C)O2)[C@H](C)[C@@H](O[C@@H]2O[C@H](C)C[C@H](N(C)CC(=O)N(C)[C@H]3C[C@@H](C)O[C@@H](O[C@@H]4[C@@H](C)[C@H](O[C@H]5C[C@@](C)(OC)[C@@H](O)[C@H](C)O5)[C@@H](C)C(=O)O[C@H](CC)[C@@](C)(O)[C@H](O)[C@@H](C)C(=O)[C@H](C)C[C@@]4(C)O)[C@@H]3O)[C@H]2O)[C@](C)(O)C[C@@H](C)C(=O)[C@H](C)[C@@H](O)[C@]1(C)O	4.58
2. CC[C@H]1OC(=O)[C@H](C)[C@@H](O[C@H]2C[C@@](C)(OC)[C@@H](O)[C@H](C)O2)[C@H](C)[C@@H](O[C@@H]2O[C@H](C)C[C@H](N(C)CCN(C)[C@H]3C[C@@H](C)O[C@@H](O[C@@H]4[C@@H](C)[C@H](O[C@H]5C[C@@](C)(OC)[C@@H](O)[C@H](C)O5)[C@@H](C)C(=O)O[C@H](CC)[C@@](C)(O)[C@H](O)[C@@H](C)C(=O)[C@H](C)C[C@@]4(C)O)[C@@H]3O)[C@H]2O)[C@](C)(O)C[C@@H](C)C(=O)[C@H](C)[C@@H](O)[C@]1(C)O	4.74
3. CC[C@H]1OC(=O)[C@H](C)[C@@H](O[C@H]2C[C@@](C)(OC)[C@@H](O)[C@H](C)O2)[C@H](C)[C@@H](O[C@@H]2O[C@H](C)C[C@H](N(C)CCN(C)[C@H]3C[C@@H](C)O[C@@H](O[C@@H]4[C@@H](C)[C@H](O[C@H]5C[C@@](C)(OC)[C@@H](O)[C@H](C)O5)[C@@H](C)C(=O)O[C@H](CC)[C@@](C)(O)[C@H](O)[C@@H](C)C(=O)[C@H](C)C[C@@]4(C)OC)[C@@H]3O)[C@H]2O)[C@](C)(O)C[C@@H](C)[C@H](O)[C@H](C)[C@@H](O)[C@]1(C)O	4.40
